Entries and their growth
Test system: OVCAR-4 ovarian
Test method notes: NCI-60 one-dose screen, 48 h (100 = growth as untreated, 0 = no growth, -100 = all killed)
Condition label: 10 µM unless noted
Procedure: Growth inhibition of the OVCAR-4 human tumor cell line is measured as a screen for anti-cancer activity. Cells are grown in 96 well plates and exposed to the test compound for 48 hours. Compounds are tested at a single concentration, which is 10^-5 M for most compounds. The reported endpoint is percent growth (GI% or GIPRCNT), where numbers from 0 - 100% represent growth inhibition, and numbers from -100% - 0 represent cell death. For example, a value of 40 represents 60% growth inhibition. […]
About 83,000 compounds went through this panel and 20% of them were active in at least one assay; those are over-represented in the sample as a whole.

Smiles notation | Test target | growth [%]
CNC(=O)c1cc(-c2ccc(NC(=O)Nc3ccc(N4CCOCC4)c(C(F)(F)F)c3)cc2)nc2cccnc12 | OVCAR-4 ovarian | 49.3
O=c1[nH]c2ccccc2cc1CSc1ccccc1Nc1nccc(-c2ccc(C(F)(F)F)cc2)n1 | OVCAR-4 ovarian | 48.7
COc1ccc(NC2=CC(=O)C(C)=C(C)C2=O)cc1 | OVCAR-4 ovarian | 43.8
CC1=C(C)C(=O)C(Nc2cccc(C(F)(F)F)c2)=C(Cl)C1=O | OVCAR-4 ovarian | -80.4
Cn1c(SCC(=O)Nc2ccc(-c3nc4ccc([N+](=O)[O-])cc4[nH]3)cc2)nc2ccccc2c1=O | OVCAR-4 ovarian | 67.5
Clc1ccc2c(NCCCn3ccnc3)c3oc4ccc(Cl)cc4c3nc2c1 | OVCAR-4 ovarian | 95.7
CN(C)c1ccc(/C=c2\sc3nc4ccccc4n3c2=O)cc1 | OVCAR-4 ovarian | 107
NS(=O)(=O)c1ccc(Nc2nc(SCC(=O)c3ccc(Cl)cc3)nc3ccccc23)cc1 | OVCAR-4 ovarian | 91.3

###

System: SK-MEL-28 melanoma
Test method notes: NCI-60 one-dose screen, 48 h (100 = growth as untreated, 0 = no growth, -100 = all killed)
Condition label: 10 µM unless noted
About 83,000 compounds went through this panel and 20% of them were active in at least one assay; those are over-represented in the sample as a whole.

Compound | growth [%]
COc1cc2nc(-c3ccc(Cl)cc3)cc(OCCCNCC3CCCO3)c2cc1OC (centres undefined) | 8.95
Clc1ccc2c(NCCCn3ccnc3)c3oc4ccc(Cl)cc4c3nc2c1 | 94
CC1=C(C)C(=O)C(Nc2cccc(C(F)(F)F)c2)=C(Cl)C1=O | 98.3
O=C(N/N=C/c1ccc[nH]1)c1[nH]c2ccc(Br)cc2c1-c1ccccc1 | 61.2
O=C(N/N=C/c1ccco1)c1[nH]c2ccc(Br)cc2c1-c1ccccc1 | 59.9
COc1ccc(CNS(=O)(=O)/N=C2\NC(=O)NC2=C(Cl)Cl)cc1 | 48.7
CN(C)c1ccc(/C=c2\sc3nc4ccccc4n3c2=O)cc1 | 103
O=c1[nH]c2ccc(Cl)cc2cc1CSc1ccccc1Nc1nccc(-c2ccc(Cl)cc2)n1 | 106
Oc1c(Cl)cc(Cl)c2ccc(CN3CCCCC3)nc12 | 28.7
CCN1C(=S)N(c2ccccc2)C2NC(=O)N(/N=C/C=C/c3ccccc3OC)C21 (centres undefined) | 95.3
Nc1cc(-c2c[nH]c3ccccc23)nc2cc(-c3c[nH]c4ccccc34)nn12 | 59.6
N#Cc1ccc(/C=N/NC(=O)c2[nH]c3ccc(Br)cc3c2-c2ccccc2)s1 | 58.4
CS(=O)(=O)c1ccc(-c2nc3ccccn3c2/C=N/Nc2nc(-c3ccc(Cl)cc3)cs2)cc1 | 93.1
Nc1c(C(=O)Nc2ccc(C(F)(F)F)cc2)sc2nc(-c3cnccn3)cc(-c3cccs3)c12 | 89.8

###

Tested on: K-562 leukemia
Test method notes: NCI-60 one-dose screen, 48 h
Condition label: 10 µM unless noted
Compounds without any hit were thinned out: in the full panel of roughly 83,000, 20% have a hit. Calls of active or inactive are those of the source. How the source made its calls: active means growth percent below 10; inactive means the rest.
Classes used: true (1) (active), false (0) (inactive)

Molecule | Test target | Class assignment
Cn1cc(-c2cc(N)n3nc(-c4cn(C)c5ccc(F)cc45)cc3n2)c2cc(F)ccc21 | K-562 leukemia | true (1)
O=C(CCN1C(=O)/C(=C/c2ccccc2F)SC1=S)N1CCOCC1 | K-562 leukemia | false (0)
N#Cc1nc(-c2ccccc2)oc1S(=O)(=O)N1CCN(CCc2ccccn2)CC1 | K-562 leukemia | true (1)
Cc1sc2nc(NCc3ccccc3Cl)[nH]c(=O)c2c1C | K-562 leukemia | false (0)
COc1ccc(C(=O)/C=C/c2ccc(OCc3ccc(Cl)cc3)c(OC)c2)cc1OC | K-562 leukemia | false (0)
CN1C(=O)N(c2ccccc2)C2N=C(N/N=C/c3ccccc3)SC21 (stereo not drawn) | K-562 leukemia | false (0)
O=C1Nc2cc(Cl)ccc2/C1=C\c1ccc(OCc2ccc(Br)cc2F)cc1 | K-562 leukemia | true (1)
COc1ccc([C@@H]2c3[nH]c4ccccc4c3CC3C(=O)N(C4CCN(Cc5c(F)cccc5F)CC4)CC(=O)N32)c(OC)c1 (stereo partly drawn) | K-562 leukemia | false (0)
O=C(N/N=C/c1ccco1)c1[nH]c2ccc(Br)cc2c1-c1ccccc1 | K-562 leukemia | true (1)
COc1ccc(N/N=C/c2c(-c3ccc(S(C)(=O)=O)cc3)nc3ccccn23)cc1 | K-562 leukemia | true (1)
CC1=C(C)C(=O)C(Nc2cccc(C(F)(F)F)c2)=C(Cl)C1=O | K-562 leukemia | true (1)
O=C1NC(=C(Cl)Cl)/C(=N/S(=O)(=O)N2CCCCC2CC2(C(F)(F)F)N=N2)N1 (stereo not drawn) | K-562 leukemia | true (1)
CCCC(=O)NC(c1cccc(N(C)C)c1)c1cc(C)c2cccnc2c1O (stereo not drawn) | K-562 leukemia | false (0)
O=C(c1ccc(Cl)cc1)C1[C@H](c2ccc(Cl)cc2)[C@@H](c2ccccc2)NC12C(=O)Nc1ccc(Br)cc12 (stereo partly drawn) | K-562 leukemia | false (0)
COc1cc(/C=C/C(=O)c2ccc(F)cc2)ccc1Oc1nc(NCCO)nc(N2CCOCC2)n1 | K-562 leukemia | true (1)
CS(=O)(=O)c1ccc(-c2nc3ccccn3c2/C=N/Nc2nc(-c3ccc(Br)cc3)cs2)cc1 | K-562 leukemia | false (0)
CC(C)(C)OC(=O)N1C(=O)c2c(c3c4ccccc4[nH]c3c3ccc4ccccc4c23)C1=O | K-562 leukemia | false (0)
CCCC(=O)NC(c1cccnc1)c1cc(C)c2cccnc2c1O (stereo not drawn) | K-562 leukemia | false (0)

###

Tested on: HT29 colon
Test method notes: NCI-60 one-dose screen, 48 h
Condition label: 10 µM unless noted
This is part of a sample that, as a whole, favours compounds with a hit. Of some 83,000 tested, about 20% had one in any assay. Active and inactive are the calls of the source. How the source made its calls: active means growth percent below 10; inactive means the rest.
Labels: active, inactive

Compound | Test target | Class assignment
O=C1Nc2ccccc2Oc2ccc(S(=O)(=O)CC3CO3)cc21 (stereo not given) | HT29 colon | inactive
Cn1ccnc1C(=O)/C=C/c1ccc(NC(=O)Nc2ccc(Cl)cc2)cc1 | HT29 colon | inactive
COc1cc2cc(Oc3ccc(NC(=O)c4cccc(C(F)(F)F)c4)cc3)c(C)nc2cc1OCCN1CCCCC1 | HT29 colon | active
CN1CCN(Cc2ccc(NC(=O)c3cncc(C#Cc4cnc5[nH]ncc5c4)c3)cc2C(F)(F)F)CC1 | HT29 colon | inactive
COc1cc(OC)c(C2SCC(=O)N2Nc2ncnc3ccccc23)cc1OC (stereo not given) | HT29 colon | inactive
O=C(Nc1nc2ccc(O)cc2s1)c1cccc(C(F)(F)F)c1 | HT29 colon | inactive
CCOC(=O)c1sc(NCC(=O)Nc2cccc([N+](=O)[O-])c2)c(C(=O)OCC)c1C | HT29 colon | active
COc1ccc(COc2ccc(/C=C3/C(=O)Nc4cc(Cl)ccc43)cc2)cc1 | HT29 colon | inactive
CC(C)NC(=O)c1cc(-c2ccc(NC(=O)Nc3ccc(N4CCOCC4)c(C(F)(F)F)c3)cc2)nc2cccnc12 | HT29 colon | inactive
CC(C)(C)Nc1nc2c(OCCc3ccccc3)cccn2c1-c1ccc(O)cc1 | HT29 colon | inactive

###

Each entry below lists one item and its recorded growth value.
System: MCF7 breast
Test method notes: NCI-60 one-dose screen, 48 h (100 = growth as untreated, 0 = no growth, -100 = all killed)
Condition label: 10 µM unless noted
This is part of a sample that, as a whole, favours compounds with a hit. Of some 83,000 tested, about 20% had one in any assay.
Parameter measured: growth (%)

Compound | Parameter measured | Value observed
COc1cc(/C=C/C(=O)c2cc(OC)c(OC)c(OC)c2)ccc1OCc1ccccc1 | growth | 8.1
CC(C)NC(=O)c1cc(-c2ccc(NC(=O)Nc3ccc(N4CCOCC4)c(C(F)(F)F)c3)cc2)nc2cccnc12 | growth | 37.2
OC1CCN(CCCOc2c3ccc(Cl)cc3nc3c2oc2ccc(Cl)cc23)CC1 | growth | -79.7
O=C(Nc1nc2ccc(O)cc2s1)c1cccc(C(F)(F)F)c1 | growth | 73.7
N#Cc1nc(-c2ccccc2)oc1S(=O)(=O)N1CCCCC1 | growth | 29.2
CC(C)(O)c1cncc(-c2ccc3ncnc(N4CCc5cc(F)c(Cl)cc54)c3c2)c1 | growth | 10.8
Clc1ccc2c(NCCCn3ccnc3)c3oc4ccc(Cl)cc4c3nc2c1 | growth | 53.8
CCN1C(=S)N(c2ccccc2)C2NC(=O)N(/N=C/C=C/c3ccccc3OC)C21 (stereo not given) | growth | 62.9
O=C(CSc1nccc(=O)[nH]1)Nc1ccc(-c2nc3ccccc3[nH]2)cc1 | growth | 103
COc1cc2nc(-c3ccc(C)cc3)cc(OCCCNCC3CCCO3)c2cc1OC (stereo not given) | growth | 59.7
COc1cc(/C=C/C(=O)c2cc(OC)c(OC)c(OC)c2)ccc1Oc1nc(NCCO)nc(N2CCOCC2)n1 | growth | 8.4
Cc1ccc(CNS(=O)(=O)/N=C2\NC(=O)NC2=C(Cl)Cl)cc1 | growth | 17.2
COc1ccc(/C=C/C(=O)c2ccc(NC(=O)CSc3nnc(-c4ccc5nc(-c6ccc(Cl)cc6)[nH]c5c4)o3)cc2)cc1 | growth | 79.7
COC(=O)C(Cc1ccccc1)NS(=O)(=O)/N=C1\NC(=O)NC1=C(Cl)Cl (stereo not given) | growth | 29.1
[Cl][Ru].c1ccc(-c2cc(-c3ccccn3)nc(-c3ccccn3)c2)cc1.c1ccc(-c2ccnc3c2ccc2c(-c4ccccc4)ccnc23)cc1 | growth | -28.2
COC(=O)C1CCCN(S(=O)(=O)/N=C2\NC(=O)NC2=C(Cl)Cl)C1 (stereo not given) | growth | 20.4
Nc1cc(-c2c[nH]c3ccccc23)nc2cc(-c3c[nH]c4ccccc34)nn12 | growth | 26.7
CN1CCN(Cc2ccc(NC(=O)c3cncc(C#Cc4cnc5ccc(N6CCSCC6)nn45)c3)cc2C(F)(F)F)CC1 | growth | -59.7
COc1ccc(N/N=C/c2c(-c3ccc(S(C)(=O)=O)cc3)nc3ccccn23)cc1 | growth | 24.3
CN(C)c1ccc(/C=C2\Cc3c(F)ccc(Br)c3C2=O)cc1 | growth | 39.8
